Reference source: patent US20030152959

Biological target: T1, ERRα1 (estrogen-related receptor alpha 1, NR3B1) (Homo sapiens, UniProt P11474 P11474:1-423)
T1 sequence: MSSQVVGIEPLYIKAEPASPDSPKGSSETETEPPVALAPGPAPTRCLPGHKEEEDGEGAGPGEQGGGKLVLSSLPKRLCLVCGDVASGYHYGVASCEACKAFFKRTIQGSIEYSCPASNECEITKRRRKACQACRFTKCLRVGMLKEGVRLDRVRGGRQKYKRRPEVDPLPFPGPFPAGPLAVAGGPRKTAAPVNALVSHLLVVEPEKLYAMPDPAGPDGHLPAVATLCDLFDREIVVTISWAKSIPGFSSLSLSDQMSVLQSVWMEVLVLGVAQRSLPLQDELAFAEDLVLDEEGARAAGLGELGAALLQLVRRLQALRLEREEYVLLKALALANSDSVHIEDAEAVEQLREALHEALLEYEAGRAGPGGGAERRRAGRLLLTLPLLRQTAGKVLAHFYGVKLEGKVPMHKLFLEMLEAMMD
Test: competition; competition EMSA, COS extract
Conditions: tags: COS / COS-M6 whole-cell extract, pcDNA3.1-hERRα1 or pRSV-hERRα1
// binding signal lookup, one value per entry
endpointLabel: binding signal (RBA vs reference ERRE)

• cyclin D1 site (dsDNA) DNA 1: GCGAGGAAAGCGTGAAGGTGATTTCAGTTAATT DNA 2: AATTAACTGAAATCACCTTCACGCTTTCCTCGC = 0.07
• Prolactin site 2 (dsDNA) DNA 1: CAAATTTGAAACTAAAGGTCACAGGCTGCTTTA DNA 2: TAAAGCAGCCTGTGACCTTTAGTTTCAAATTTG = 0.33
• ERβ promoter site (dsDNA) DNA 1: GGTGCTCCCACTTAGAGGTCACGCGCGGCGTCG DNA 2: CGACGCCGCGCGTGACCTCTAAGTGGGAGCACC = 0.54
• elk1 site (dsDNA) DNA 1: CTCCCATCTCACTTAAGGTCAAAGCCAGGGTCC DNA 2: GGACCCTGGCTTTGACCTTAAGTGAGATGGGAG = 0.22
• hMDM2 site (dsDNA) DNA 1: GGGAGTTCAGGGTAAAGGTCACGGGGCCGGGGC DNA 2: GCCCCGGCCCCGTGACCTTTACCCTGAACTCCC = 0.35
• IGF2 site 2 (dsDNA) DNA 1: CTGTCGGCAGGAACAAGGTCACCCCTTGGCGTT DNA 2: AACGCCAAGGGGTGACCTTGTTCCTGCCGACAG = 0.25
• ErbB2 ERRE (dsDNA) DNA 1: AAAGGAACTTTCCCAAGGTCACAGAGCTGAGCT DNA 2: AGCTCAGCTCTGTGACCTTGGGAAAGTTCCTTT = 1.01
